System: Chordin-like protein 2 (CHRDL2)
Test: CHRDL2 small-molecule binders, primary screen, biochemical, small-molecule microarray, 635 nm fluorescence (AID 1126);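 further: printed compound slides probed with Chrdl2 protein at 4 µg/mL for 1 h at 4 C; score merges 667 nm emission intensity with signal to noise over three replicate slides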
Settings: small-molecule microarray binding, fluorescence 635 nm; higher = more signal
Outcome label depends on composite z-score relative to 1: at/above gives YES, below gives NO.

COMPOUND	GROUP
Cc1ccc(S[C@]2(C(=O)NCC(F)(F)F)CC(=O)N(Cc3ccccc3C(F)(F)F)[C@@H]2c2ccc(CO)cc2I)cc1	NO

Query :: Check the entry CC(=O)NCCCC[C@@H]1NC(=O)[C@H]2C[C@@H](C(=O)NCCCC[N+](C)(C)C)[C@@H](c3cccc(OCCO)c3)N2C1=O : does composite z-score equal or exceed 1?
Result :: YES

Query :: CCOc1cc(C(O)C2C=CC3C(=O)N(c4ccccc4)C(=O)C3N2Nc2ccc(C#N)cc2)ccc1O (configuration not stated) , same question.
Result :: NO

Query :: C=C(/C(=C/C[C@H](OC(=O)c1ccncc1)c1ccc(CO)o1)c1cc(C(=O)OC)ccc1OC)C(C)C , same question.
Result :: NO

Query :: C=C[C@@H](COC(C)=O)N(C(=O)OC(C)(C)C)S(=O)(=O)c1ccc(Br)cc1 , same question.
Result :: YES

Query :: O=C1O[C@@H](c2ccccc2)[C@@H](c2ccccc2)N2[C@@H](c3ccc(OCCO)cc3)[C@]3(C(=O)Nc4ccccc43)[C@@H](C(=O)O)[C@H]12 , same question.
Result :: NO

----------
Test: MM1S myeloma cell viability, profiling panel, resazurin fluorescence, basal, 24 h, PK04 Diversity Set (AID 1174);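 further: MM1S multiple myeloma cell line; test concentration not given here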
Details: higher = more signal, called active from +8 up or from −8 down
PARAMETER_MEASURED: z-score
Output: the number by itself.

These solved cases illustrate the format of a correct answer.
MOLECULE	z-score
CC=CC(O)C1C=CC2C(=O)N(c3ccccc3)C(=O)C2N1Nc1ccccc1F (stereo not given)	-0.424
CCOc1cc(C(O)C2C=CC3C(=O)N(c4ccccc4)C(=O)C3N2Nc2ccc(C#N)cc2)ccc1O (stereo not given)	-1.71

Query :: Data request, read-out z-score, for [N-]=[N+]=Nc1ccccc1[C@H]1OC(c2ccc(OCCCO)cc2)=N[C@@]1(Cc1ccccc1)C(=O)N1CCCCC1
Result :: -3.61

Query :: C=C(C)[C@@H]1CC=C(C(O)C2C=CC3C(=O)N(c4ccccc4)C(=O)C3N2Nc2ccccc2F)CC1 (stereo not given in full) , same question.
Result :: -0.773

Query :: CCCC[C@@H](O)C1=C(COc2ccccc2)C[C@H]2C(=O)N(C)C(=O)[C@H]2[C@H]1CO , same question.
Result :: 0.147

----------
Target: Torsin-1A (Homo sapiens) (UniProt O14656)
Sequence (O14656 whole entry, looked up): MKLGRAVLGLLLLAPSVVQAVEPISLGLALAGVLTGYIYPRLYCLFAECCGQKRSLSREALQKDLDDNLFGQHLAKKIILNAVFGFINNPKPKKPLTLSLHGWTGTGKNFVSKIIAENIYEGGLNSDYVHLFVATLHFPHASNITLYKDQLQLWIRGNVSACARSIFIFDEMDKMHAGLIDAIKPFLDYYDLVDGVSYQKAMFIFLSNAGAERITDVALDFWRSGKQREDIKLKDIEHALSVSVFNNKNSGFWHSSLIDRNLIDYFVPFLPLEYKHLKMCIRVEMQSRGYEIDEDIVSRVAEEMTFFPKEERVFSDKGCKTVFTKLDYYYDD
Test: torsin A binders from cell lysate, primary screen, small-molecule microarray, wild-type, 635/667 nm (AID 1149)
Conditions: COS7 hTOR1A-WT lysate, 635 nm fluorescence, higher = more signal
PARAMETER_MEASURED: composite z-score
Output: the number by itself.

COMPOUND	composite z-score
CN1C(=O)C2C=CC(C(O)C#Cc3ccccc3)N(Nc3ccccc3)C2C1=O (configuration not stated)	0.663

Query :: Data request, read-out composite z-score, for CN(C)c1ccc(C(O)C2C=CC3C(=O)N(c4ccccc4)C(=O)C3N2Nc2ccc([N+](=O)[O-])cc2)cc1 (configuration not stated)
Result :: 0.603

Query :: Cn1cccc1C(O)C1C=CC2C(=O)NC(=O)C2N1Nc1ccc(Cl)cc1Cl (configuration not stated) , same question.
Result :: 0.887

Query :: C=CCC(OC(C)=O)[C@@H]1[C@@H](N(Cc2cccc3ccccc23)C(=O)c2cccc3ccccc23)c2cc(OCCCO)ccc2N1C(=O)c1ccc(-c2ccccc2)cc1 (some centres not stated) , same question.
Result :: -0.104

Query :: C=CCNC(=O)[C@@H]1[C@H]2C(=O)O[C@H](c3ccccc3)[C@H](c3ccccc3)N2[C@H](c2ccc(O)cc2)[C@@]12C(=O)N(C(=O)OCCOC)c1ccc(C#CC3(O)CCCCCC3)cc12 , same question.
Result :: -1.68

Query :: COC(=O)c1c(CC[C@@H](CO)NC(=O)N[C@H](Cn2cc(C3(O)CCCCC3)nn2)C(C)C)oc(C(C)=O)c1C(=O)OC , same question.
Result :: 0.881

Query :: CC(C)(C)OC(=O)CC[C@]1(C(=O)NCc2ccccc2)N=C(c2ccc(OCCCO)cc2)O[C@H]1c1ccccc1CN=[N+]=[N-] , same question.
Result :: 0.245
